List of pEC50 values.
Tested on: Human RSV-A (“Long” strain)
method.description: RSV in vitro cytoprotection assay (CPE, ATPlite) in HEp-2 cells
Type: cell-based
test.context: human respiratory syncytial virus, 96 h; HEp-2 cells, 4-day incubation, ATPlite readout; read-out: Human RSV-A (“Long” strain) EC50
pEC50: −log10 of the molar value.

Param item = `Cc1cnc(N2CC3(CCOCC3)C2)c(C(=O)Nc2ccc(C(=O)N3CCc4c(sc(C(=O)Nc5c(C)cccc5C#N)c4F)-c4ccccc43)cc2)c1` ; retrieve measured pEC50.
> 8.00

Same question for `COc1ccc(C(=O)Nc2ccc(C(=O)N3CCc4cc(C(=O)Nc5c(F)cc(F)cc5Cl)sc4-c4ccc(F)cc43)cc2)c(N2CC3(CCOCC3)C2)n1` please.
7.30 to 8.00

Same question for `Cc1cnc(N2CC3(CCOCC3)C2)c(C(=O)Nc2ccc(C(=O)N3CCc4c(sc(C(=O)Nc5ccccc5Cl)c4Cl)-c4ccccc43)cc2)c1` please.
7.30 to 8.00

Same question for `O=C(Nc1ccc(C(=O)N2CCc3nc(-c4nc5ccccc5[nH]4)sc3-c3ccccc32)cc1)c1cccnc1N1CC2(CCOCC2)C1` please.
7.30 to 8.00

Same question for `O=C(Nc1ccc(C(=O)N2CCc3c(sc(-c4nc5ccccc5[nH]4)c3F)-c3ccccc32)cc1)c1cccnc1N1CC2(CCOCC2)C1` please.
> 8.00

====

Test system: Human RSV-A (“Long” strain)
method.description: RSV in vitro cytoprotection assay (CPE, ATPlite) in HEp-2 cells
Type: cell-based
test.context: human respiratory syncytial virus, 96 h; HEp-2 cells, 4-day incubation, ATPlite readout; read-out: Human RSV-A (“Long” strain) EC50
List of EC50 values.

Take a look at these entries with their results.
Cc1cnc(N2CC3(CCOCC3)C2)c(C(=O)Nc2ccc(C(=O)N3CCc4c(sc(C(=O)Nc5ccccc5)c4F)-c4ccccc43)cc2)c1 :: < 10 nM
O=C(Nc1c(F)cccc1F)c1cc2c(s1)-c1ccc(F)cc1N(C(=O)c1ccc(NC(=O)c3cc4ccccc4nc3N3CC4(CCOCC4)C3)cc1)CC2 :: < 10 nM
Cc1cnc(N2CC3(CCOCC3)C2)c(C(=O)Nc2ccc(C(=O)N3CCc4c(sc(C(=O)Nc5ccc(F)cc5)c4F)-c4ccccc43)cc2)c1 :: < 10 nM

Report EC50 for `Cc1ccc(C(=O)Nc2ccc(C(=O)N3CCc4cc(-c5nc6ccccc6[nH]5)sc4-c4ccc(F)cc43)cc2)c(N2CC3(CCOCC3)C2)n1` tested on Human RSV-A (“Long” strain).
< 10 nM

Same question for `O=C(Nc1c(F)cc(F)cc1F)c1cc2c(s1)-c1cc(F)c(F)cc1N(C(=O)c1ccc(NC(=O)c3cc(F)cnc3N3CC4(CCOCC4)C3)cc1)CC2` please.
10 to 50 nM

Same question for `Cc1cnc(N2CC3(CCOCC3)C2)c(C(=O)Nc2ccc(C(=O)N3CCc4cc(-c5nc(C)co5)sc4-c4ccc(F)cc43)cc2)c1` please.
10 to 50 nM

====

System: Human RSV-A (“Long” strain)
method.description: RSV in vitro cytoprotection assay (CPE, ATPlite) in HEp-2 cells
Format: cell-based
test.context: human respiratory syncytial virus, 96 h; HEp-2 cells, 4-day incubation, ATPlite readout; read-out: Human RSV-A (“Long” strain) EC50
measured.endpoint: EC50

Take a look at these entries with their results.
Cc1ccc(C(=O)Nc2ccc(C(=O)N3CCc4c(sc(NC(=O)c5ccccc5F)c4F)-c4ccccc43)cc2)c(N2CC3(CCOCC3)C2)n1 :: 10 to 50 nM
Cc1cnc(N2CC3(CCOCC3)C2)c(C(=O)Nc2ccc(C(=O)N3CCc4c(sc(NC(=O)c5ccccc5F)c4F)-c4ccccc43)cc2)c1 :: < 10 nM

Now consider a different molecule.
Param item = `Cc1cnc(N2CC3(CCOCC3)C2)c(C(=O)Nc2ccc(C(=O)N3CCc4cc(NS(=O)(=O)c5c(F)cccc5Cl)sc4-c4ccccc43)cc2)c1` ; retrieve measured EC50.
> 50 nM

====

Test system: Human RSV-A (“Long” strain)
method.description: RSV in vitro cytoprotection assay (CPE, ATPlite) in HEp-2 cells
Assay type: cell-based
test.context: human respiratory syncytial virus, 96 h; HEp-2 cells, 4-day incubation, ATPlite readout; read-out: Human RSV-A (“Long” strain) EC50
measured.endpoint: EC50

CC1(C)CCN(c2ncccc2C(=O)Nc2ccc(C(=O)N3CCc4cc(C(=O)Nc5c(F)cccc5F)sc4-c4ccc(F)cc43)cc2)CCS1(=O)=O [Example 49] :: > 0.05 µM
O=C(Nc1c(F)cccc1C(F)(F)F)c1cc2c(s1)-c1cc(F)c(F)cc1N(C(=O)c1ccc(NC(=O)c3cc(F)cnc3N3CC4(CCOCC4)C3)cc1)CC2 [Example 75] :: 0.01 to 0.05 µM
Cc1cnc(N2CC3(CCOCC3)C2)c(C(=O)Nc2ccc(C(=O)N3CCc4cc(NC(=O)c5ccccc5)sc4-c4ccccc43)cc2)c1 [Example 284] :: < 0.01 µM
Cc1cnc(N2CC3(CCOCC3)C2)c(C(=O)Nc2ccc(C(=O)N3CCc4c(sc(C(=O)Nc5ncccc5C(F)(F)F)c4F)-c4ccccc43)cc2)c1 [Example 231] :: < 0.01 µM

Param item = O=C(Nc1c(F)cc(F)cc1F)c1cc2c(o1)-c1ccccc1N(C(=O)c1ccc(NC(=O)c3cc4c(nc3N3CC5(CCOCC5)C3)CCC4)cc1)CC2 [Example 253] ; retrieve measured EC50.
< 0.01 µM

Same question for Cc1ccc(C(=O)Nc2ccc(C(=O)N3CCc4c(sc(NC(=O)c5c(C)cccc5F)c4F)-c4ccccc43)cc2)c(N2CC3(CCOCC3)C2)n1 [Example 308] please.
0.01 to 0.05 µM

Same question for O=C(Nc1c(F)cccc1F)c1cc2c(s1)-c1cc(F)c(F)cc1N(C(=O)c1ccc(NC(=O)c3cc(F)cnc3N3CC4(CCOCC4)C3)cc1)CC2 [Example 73] please.
0.01 to 0.05 µM

Same question for Cc1cnc(N2CC3(CCOCC3)C2)c(C(=O)Nc2ccc(C(=O)N3CCc4c(sc(C(=O)Nc5cccc(F)c5F)c4F)-c4ccccc43)cc2)c1 [Example 216] please.
< 0.01 µM

Same question for O=C(Nc1c(F)cc(F)cc1Cl)c1cc2c(s1)-c1ccc(F)cc1N(C(=O)c1ccc(NC(=O)c3ccc(-c4cccs4)nc3N3CC4(CCOCC4)C3)cc1)CC2 [Example 27] please.
0.01 to 0.05 µM

Same question for Cc1cnc(N2CC3(CCOCC3)C2)c(C(=O)Nc2ccc(C(=O)N3CCc4cc(-c5ncco5)sc4-c4ccc(F)cc43)cc2)c1 [Example 169] please.
< 0.01 µM

Same question for Cc1ccc(NC(=O)c2sc3c(c2F)CCN(C(=O)c2ccc(NC(=O)c4cc(C)cnc4N4CC5(CCOCC5)C4)cc2)c2ccccc2-3)nc1 [Example 228] please.
0.01 to 0.05 µM

Same question for Cc1cccc(F)c1NC(=O)c1cc2c(o1)-c1ccccc1N(C(=O)c1ccc(NC(=O)c3cc4c(nc3N3CC5(CCOCC5)C3)CCC4)cc1)CC2 [Example 250] please.
< 0.01 µM

Same question for Cc1ccc(C(=O)Nc2ccc(C(=O)N3CCc4cc(C(=O)Nc5c(C)cccc5F)oc4-c4ccccc43)cc2)c(N2CC3(CCOCC3)C2)n1 [Example 256] please.
< 0.01 µM

Same question for Cc1cnc(N2CC3(CCOCC3)C2)c(C(=O)Nc2ccc(C(=O)N3CCc4cc(C(=O)NC5CC(C)(C)OC(C)(C)C5)sc4-c4ccc(F)cc43)cc2)c1 [Example 121] please.
< 0.01 µM

Same question for Cc1cnc(N2CC3(CCOCC3)C2)c(C(=O)Nc2ccc(C(=O)N3CCc4c(sc(C(=O)Nc5c(C)cccc5F)c4F)-c4ccccc43)cc2)c1 [Example 95] please.
< 0.01 µM

Same question for Cc1cnc(N2CC3(CCOCC3)C2)c(C(=O)Nc2ccc(C(=O)N3CCc4cc(-c5c[nH]c6c(Cl)cccc56)sc4-c4ccc(F)cc43)cc2)c1 [Example 175] please.
> 0.05 µM

Same question for O=C(Nc1c(F)cccc1F)c1cc2c(s1)CCN(C(=O)c1ccc(NC(=O)c3cc4c(nc3N3CC5(CCOCC5)C3)CCC4)cc1)c1ccccc1-2 [Example 263] please.
0.01 to 0.05 µM

Same question for Cc1cccc(F)c1NC(=O)c1cc2c(s1)-c1ccc(F)cc1N(C(=O)c1ccc(NC(=O)c3cc(F)cnc3N3CC4(CCOCC4)C3)cc1)CC2 [Example 36] please.
< 0.01 µM

Same question for Cc1cnc(N2CC3(CCOCC3)C2)c(C(=O)Nc2ccc(C(=O)N3CCc4cc(C(=O)Nc5ncccc5Cl)sc4-c4ccc(F)cc43)cc2)c1 [Example 120] please.
< 0.01 µM

Same question for O=C(Nc1ccc(C(=O)N2CCc3cc(-c4nc5cccc(Cl)c5[nH]4)sc3-c3ccc(F)cc32)cc1)c1cc(F)cnc1N1CC2(CCOCC2)C1 [Example 44] please.
0.01 to 0.05 µM
